- TGT: human TLR7 (Homo sapiens, UniProt Q9NYK1)
- Sequence (Q9NYK1 27-1049): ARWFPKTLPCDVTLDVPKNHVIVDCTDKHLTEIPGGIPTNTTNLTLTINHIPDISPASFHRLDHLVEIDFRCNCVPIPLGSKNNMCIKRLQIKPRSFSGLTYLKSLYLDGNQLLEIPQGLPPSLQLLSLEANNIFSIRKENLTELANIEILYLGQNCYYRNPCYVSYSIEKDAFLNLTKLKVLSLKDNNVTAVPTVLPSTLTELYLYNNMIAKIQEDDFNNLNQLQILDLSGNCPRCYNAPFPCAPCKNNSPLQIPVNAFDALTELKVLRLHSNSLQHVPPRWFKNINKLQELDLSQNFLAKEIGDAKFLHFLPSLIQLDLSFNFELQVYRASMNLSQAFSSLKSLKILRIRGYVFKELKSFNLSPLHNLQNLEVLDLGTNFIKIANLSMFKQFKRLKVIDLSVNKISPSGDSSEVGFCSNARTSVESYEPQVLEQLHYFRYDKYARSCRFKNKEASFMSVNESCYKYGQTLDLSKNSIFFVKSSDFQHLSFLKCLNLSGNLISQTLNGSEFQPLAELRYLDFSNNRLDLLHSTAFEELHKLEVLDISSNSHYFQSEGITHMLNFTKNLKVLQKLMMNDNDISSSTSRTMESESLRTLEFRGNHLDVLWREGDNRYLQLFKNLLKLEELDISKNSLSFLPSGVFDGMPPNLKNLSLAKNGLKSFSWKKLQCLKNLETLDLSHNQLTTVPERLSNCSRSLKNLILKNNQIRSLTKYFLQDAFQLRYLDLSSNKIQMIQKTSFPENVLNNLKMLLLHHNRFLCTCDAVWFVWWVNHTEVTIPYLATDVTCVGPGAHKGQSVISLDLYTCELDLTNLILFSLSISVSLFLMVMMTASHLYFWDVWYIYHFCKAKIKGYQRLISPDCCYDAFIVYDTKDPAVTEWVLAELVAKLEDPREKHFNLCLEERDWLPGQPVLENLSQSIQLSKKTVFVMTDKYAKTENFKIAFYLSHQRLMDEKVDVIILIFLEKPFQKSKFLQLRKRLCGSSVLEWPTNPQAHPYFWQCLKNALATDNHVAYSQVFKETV
- PROCEDURE SUMMARY: TLR7 inhibition reporter assay (HEK-Blue cells, SEAP reporter)
- TEST CONTEXT: HEK-Blue cells overexpressing human TLR7, stimulated with gardiquimod 7.5 μM, 22 hour incubation
MEASURED ATTRIBUTE: IC50 (nM)

{"MOLECULE": "Cc1nc(-c2ccc(CN3C[C@H]4CC[C@@H]3CN4CC(C)(C)CO)cc2)cc2c1cc(-c1ccc(S(C)(=O)=O)cc1)n2C", "IC50 [nM]": 750}
{"MOLECULE": "Cc1nc(-c2ccc(N3CC4CCC(C3)N4CCCO)cc2)cc2c1cc(-c1ccc(S(C)(=O)=O)cc1)n2C", "IC50 [nM]": 600}
{"MOLECULE": "Cc1nc(-c2ccc(CN3CCN(CC(C)(C)O)CC3)cc2)cc2c1cc(-c1ccc(S(C)(=O)=O)cc1)n2C1CC1", "IC50 [nM]": 3700}
{"MOLECULE": "Cc1nc(-c2ccc(C3(O)CCN(C4CC4)CC3)c(F)c2)cc2c1cc(-c1ccc(S(C)(=O)=O)cc1)n2C", "IC50 [nM]": 9900}
{"MOLECULE": "Cc1nc(-c2ccc([C@]3(O)CCN(C(C)C)C(C)(C)C3)c(F)c2)cc2c1cc(-c1ccc(S(C)(=O)=O)cc1)n2C", "IC50 [nM]": 1500}

[I] COCCN1C2CCC1CN(c1ccc(-c3cc4c(cc(-c5ccc(S(C)(=O)=O)cc5)n4C)c(C)n3)cc1)C2
[II] Cc1nc(-c2cc(F)c(N3CCNCC3)cc2F)cc2c1cc(-c1ccc(S(C)(=O)=O)cc1)n2C
[III] COc1ccc(-c2c(C)[nH]c3cnc(-c4ccc(N5CCN(C(C)C)CC5)cc4)cc23)cc1OC
Order by IC50, ascending. Reply with the labels, ordered as the question asks.
I, III, II

[a] Cc1nc(-c2ccc(N3CCN4CCCC4C3)c(F)c2F)cc2c1cc(-c1ccc(S(C)(=O)=O)cc1)n2C (centres unmarked)
[b] COCCN1CCN(c2ccc(-c3cc4c(cc(-c5ccc(S(C)(=O)=O)cc5)n4C)c(C)n3)cc2)CC1
[c] Cc1nc(-c2cc(F)c(N3CCN(CCCO)CC3)cc2F)cc2c1cc(-c1ccc(S(C)(=O)=O)cc1)n2C
Sort ascending by IC50. Would you mind listing the labels in the order asked for?
a, b, c

[a] COc1ccc(-c2c(C)n(C)c3cnc(-c4ccc(N5CCN(C(C)C)CC5)cc4)cc23)cc1OC
[b] Cc1nc(-c2ccc(CN3C[C@@H]4CC[C@H]3CN4CCC(C)(C)O)cc2)cc2c1cc(-c1ccc(S(C)(=O)=O)cc1)n2C
Please indicate which item has the smaller measured IC50: a versus b Reply with the label of the item you choose.
a
(a: 1400 nM, b: 3100 nM)

Where do these numbers come from? They come from patent US12590091B2.
